Molecular target: T1, AGO6 D623A (Arabidopsis thaliana, UniProt O48771 1-878, D623A)
T1 sequence: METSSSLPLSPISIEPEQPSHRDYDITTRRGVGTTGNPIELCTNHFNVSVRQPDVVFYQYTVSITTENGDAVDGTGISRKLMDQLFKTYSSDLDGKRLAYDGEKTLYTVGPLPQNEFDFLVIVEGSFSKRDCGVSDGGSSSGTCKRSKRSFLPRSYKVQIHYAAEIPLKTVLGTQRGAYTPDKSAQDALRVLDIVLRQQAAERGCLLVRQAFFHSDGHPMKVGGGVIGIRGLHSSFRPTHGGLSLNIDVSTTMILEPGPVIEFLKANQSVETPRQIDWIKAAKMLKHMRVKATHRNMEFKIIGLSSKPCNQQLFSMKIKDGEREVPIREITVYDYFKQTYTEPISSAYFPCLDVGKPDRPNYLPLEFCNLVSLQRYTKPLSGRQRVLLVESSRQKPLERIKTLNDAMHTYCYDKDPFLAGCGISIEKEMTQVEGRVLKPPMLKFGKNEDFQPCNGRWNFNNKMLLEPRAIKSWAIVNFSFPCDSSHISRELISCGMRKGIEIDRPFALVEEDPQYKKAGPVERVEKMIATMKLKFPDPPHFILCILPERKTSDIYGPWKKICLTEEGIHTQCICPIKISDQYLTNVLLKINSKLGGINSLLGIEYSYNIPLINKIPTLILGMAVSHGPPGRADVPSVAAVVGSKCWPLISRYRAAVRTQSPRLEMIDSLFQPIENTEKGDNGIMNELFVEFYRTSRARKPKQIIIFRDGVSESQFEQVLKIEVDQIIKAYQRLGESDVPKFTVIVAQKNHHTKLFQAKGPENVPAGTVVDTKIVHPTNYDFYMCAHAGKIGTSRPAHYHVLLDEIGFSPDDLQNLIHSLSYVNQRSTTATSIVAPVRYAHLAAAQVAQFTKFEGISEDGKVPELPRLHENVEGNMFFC
Test: filter binding; 100 mM KOAc, 18 mM HEPES pH 7.4, 3 mM Mg(OAc)2, 5 mM DTT, 0.01% IGEPAL CA-630, 0.01 mg/ml yeast tRNA; 20 pM target; 25 C, 1 h
Settings: protein: ivt; tags: N-terminal 3xFLAG-SUMO, removed by SUMOstar elution; label: target 3' 32P-cordycepin; target 28 nt
Please provide measured pKd for the entries that follow.
Kindly note that pKd refers to -log10 of the concentration in mol/L and answer with the value alone.

Task: Suppose we examine the binder 24-nt 5'A guide / t1U RNA (dsRNA, guide 3' 2'-O-methyl) RNA 1: AGAGGUAGAUCCUUGUAUAGUCUC RNA 2: ACGAGACUAUACAAGGAUCUACCUCUCAA ; what pKd value has been reported?
Output: 10.30

Task: And what about the binder 24-nt 5'A guide / t1T DNA (DNA:RNA, guide 3' 2'-O-methyl) RNA: AGAGGUAGAUCCUUGUAUAGUCUC DNA: ACGAGACTATACAAGGATCTACCTCTCAA ?
Output: 11.14
